- target: UniProt:P06213
- Sequence (P06213 28-758 limits assumed): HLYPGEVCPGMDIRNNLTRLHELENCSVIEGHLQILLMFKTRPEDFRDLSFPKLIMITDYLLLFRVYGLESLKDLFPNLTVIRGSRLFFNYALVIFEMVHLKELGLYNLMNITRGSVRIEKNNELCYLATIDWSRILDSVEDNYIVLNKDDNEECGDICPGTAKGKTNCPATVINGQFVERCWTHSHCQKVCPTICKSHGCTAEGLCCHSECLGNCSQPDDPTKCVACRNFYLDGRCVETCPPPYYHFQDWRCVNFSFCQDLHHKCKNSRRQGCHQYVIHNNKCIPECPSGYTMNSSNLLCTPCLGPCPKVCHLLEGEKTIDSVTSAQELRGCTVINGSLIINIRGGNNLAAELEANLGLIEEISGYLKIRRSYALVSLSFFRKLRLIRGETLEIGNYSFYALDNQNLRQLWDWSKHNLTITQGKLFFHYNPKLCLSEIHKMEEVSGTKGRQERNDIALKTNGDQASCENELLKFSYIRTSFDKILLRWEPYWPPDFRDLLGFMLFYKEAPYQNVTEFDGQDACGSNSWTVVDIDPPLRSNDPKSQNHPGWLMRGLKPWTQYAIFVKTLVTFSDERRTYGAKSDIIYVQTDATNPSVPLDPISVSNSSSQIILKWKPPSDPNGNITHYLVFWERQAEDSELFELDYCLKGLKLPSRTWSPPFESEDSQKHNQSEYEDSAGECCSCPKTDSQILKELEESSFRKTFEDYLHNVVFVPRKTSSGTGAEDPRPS
- Sequence (P06213 763-1382 limits assumed): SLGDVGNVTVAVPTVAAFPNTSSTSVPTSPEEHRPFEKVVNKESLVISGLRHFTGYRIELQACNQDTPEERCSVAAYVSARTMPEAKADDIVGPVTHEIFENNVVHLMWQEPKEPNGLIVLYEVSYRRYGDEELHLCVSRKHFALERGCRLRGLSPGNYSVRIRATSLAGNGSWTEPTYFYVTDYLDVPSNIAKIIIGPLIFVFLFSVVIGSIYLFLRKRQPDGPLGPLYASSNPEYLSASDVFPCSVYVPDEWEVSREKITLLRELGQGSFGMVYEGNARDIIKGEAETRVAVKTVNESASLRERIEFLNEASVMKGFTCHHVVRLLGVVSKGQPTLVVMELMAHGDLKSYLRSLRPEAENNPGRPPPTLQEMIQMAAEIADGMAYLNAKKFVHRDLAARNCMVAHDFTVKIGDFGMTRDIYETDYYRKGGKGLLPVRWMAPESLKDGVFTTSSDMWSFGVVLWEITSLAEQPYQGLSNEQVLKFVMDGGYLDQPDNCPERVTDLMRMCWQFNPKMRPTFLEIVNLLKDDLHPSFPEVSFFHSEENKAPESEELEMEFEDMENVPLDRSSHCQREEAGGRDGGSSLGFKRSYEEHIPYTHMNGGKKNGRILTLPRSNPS
- experiment_description: Inhibition of INSR (unknown origin) at 30 uM by microfluidic mobility shift assay relative to control
readout_label: inhibition (%)
Number only, in %; omit the unit.

Form field inhibition, entry COC(=O)C1CCC2(CCN(c3ncnc4[nH]cnc34)CC2)NC1 (racemic) : 10

compound c1ccc(CC2CCC3(CCN(c4ncnc5[nH]cnc45)CC3)NC2)cc1 (racemic) , inhibition observed: 18

Sample CN(C)C(=O)C1CCC2(CCN(c3ncnc4[nH]cnc34)CC2)NC1 (racemic) ; inhibition observed: 17

Reported inhibition ( c1ccc(CC2CCNC3(CCN(c4ncnc5[nH]cnc45)CC3)C2)cc1 (racemic) ) = 0

Please fill in: inhibition reported for `c1nc(N2CCC3(CCCOC3)CC2)c2nc[nH]c2n1` = 2

* * *

- target: Mitogen-activated protein kinase 1 (Homo sapiens, UniProt P28482)
- Sequence (P28482 whole entry): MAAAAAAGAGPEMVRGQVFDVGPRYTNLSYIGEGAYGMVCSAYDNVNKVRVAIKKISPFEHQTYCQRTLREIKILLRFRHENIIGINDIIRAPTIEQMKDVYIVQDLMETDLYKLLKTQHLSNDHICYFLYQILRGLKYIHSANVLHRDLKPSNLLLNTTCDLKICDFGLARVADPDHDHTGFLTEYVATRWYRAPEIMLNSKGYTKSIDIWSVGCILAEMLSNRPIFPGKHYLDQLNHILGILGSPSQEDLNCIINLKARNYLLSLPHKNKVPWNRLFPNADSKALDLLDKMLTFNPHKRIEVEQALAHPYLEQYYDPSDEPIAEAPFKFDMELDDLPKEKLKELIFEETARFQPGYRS
- experiment_description: Inhibition of ERK2 (unknown origin) at 30 uM by microfluidic mobility shift assay relative to control
Response key: 1.0 means inhibition >= 20%; 0.0 means inhibition < 20%.

Incoming: Decide: is the reported value of inhibition for c1nc(N2CCCC3(CCCNC3)C2)c2nc[nH]c2n1 (stereo unspecified) equal to or greater than 20%?
Outgoing: 0.0

Incoming: Quick check: does OC1CCNC2(CCN(c3ncnc4[nH]cnc34)CC2)C1 (racemic) have inhibition greater than or equal to 20%?
Outgoing: 1.0

Incoming: Record `O=S(=O)(c1cccc2cnccc12)N1CCC2(CCNC2)CC1` ; criterion: inhibition no lower than 20%. Met?
Outgoing: 0.0

Incoming: Could you tell me if the measured inhibition of O=S(=O)(c1cccc2cnccc12)N1CCC2(CC1)CC(O)CCN2 (racemic) reaches 20% or more?
Outgoing: 0.0

Incoming: Check the entry `c1nc(N2CCCC23CCNCC3)c2nc[nH]c2n1` : does inhibition equal or exceed 20%?
Outgoing: 0.0

Incoming: State whether the measured inhibition reaches 20%, counting equality as reaching it, for CN(C)C(=O)C1CCC2(CCN(c3ncnc4[nH]cnc34)CC2)NC1 (racemic)
Outgoing: 1.0

Incoming: Record `O=S(=O)(c1cccc2cnccc12)N1CCCC2(CCNCC2)C1` ; criterion: inhibition no lower than 20%. Met?
Outgoing: 0.0

Incoming: Can `O=S(=O)(c1cccc2cnccc12)N1CCC2(CCCNC2)CC1` be said to have inhibition at or above 20%?
Outgoing: 0.0

Incoming: Confirm if inhibition reported for the molecule `c1nc(N2CCC3(CCCCO3)CC2)c2nc[nH]c2n1` is 20% or above.
Outgoing: 1.0

Incoming: hey, is inhibition for this one >= 20%? `c1nc(N2CCCC3(CCNCC3)C2)c2nc[nH]c2n1`
Outgoing: 1.0

* * *

- target: Mitogen-activated protein kinase 3 (Homo sapiens)
- Sequence (P27361 whole entry): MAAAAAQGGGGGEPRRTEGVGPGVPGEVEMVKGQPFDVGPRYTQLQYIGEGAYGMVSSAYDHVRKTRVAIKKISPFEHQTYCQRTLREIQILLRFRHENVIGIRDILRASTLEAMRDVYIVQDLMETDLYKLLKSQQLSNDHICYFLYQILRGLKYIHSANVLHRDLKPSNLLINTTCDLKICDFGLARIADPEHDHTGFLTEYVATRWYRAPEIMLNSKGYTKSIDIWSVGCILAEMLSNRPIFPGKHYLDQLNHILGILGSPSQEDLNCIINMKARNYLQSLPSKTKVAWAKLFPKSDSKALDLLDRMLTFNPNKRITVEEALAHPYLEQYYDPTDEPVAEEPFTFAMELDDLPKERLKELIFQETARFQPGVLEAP
- experiment_description: Inhibition of ERK1 (unknown origin) at 30 uM by microfluidic mobility shift assay relative to control
Classification field: enter criterion met for inhibition values not below 30%, criterion not met for values below it.

Incoming: Could you verify whether the entry O=S(=O)(c1cccc2cnccc12)N1CCCC2(CCCNC2)C1 (stereo not given) shows inhibition of no less than 30%?
Outgoing: criterion not met

Incoming: Hello, I need to know if c1ccc(C2CCNC3(CCN(c4ncnc5[nH]cnc45)CC3)C2)cc1 (racemic) has measured inhibition not below 30%. Thanks!
Outgoing: criterion met

Incoming: Could you tell me if the measured inhibition of `O=S(=O)(c1cccc2cnccc12)N1CCC2(CCCN2)CC1` reaches 30% or more?
Outgoing: criterion not met

Incoming: Dear colleague, could you confirm whether c1ccc(CC2CCNC3(CCN(c4ncnc5[nH]cnc45)CC3)C2)cc1 (racemic) has inhibition at or above 30%?
Outgoing: criterion met

Incoming: For this compound, is measured inhibition 30% or higher? COC(=O)C1CCC2(CCN(c3ncnc4[nH]cnc34)CC2)NC1 (racemic)
Outgoing: criterion not met

Incoming: Is reported inhibition greater than or equal to 30% here: `c1nc(N2CCC3(CCCN3)CC2)c2nc[nH]c2n1`
Outgoing: criterion met

Incoming: Does the compound CN(C)C(=O)C1CCC2(CCN(c3ncnc4[nH]cnc34)CC2)NC1 (racemic) have recorded inhibition that is 30% or more?
Outgoing: criterion not met

Incoming: Decide: inhibition of `c1nc(N2CCC3(CCNC3)CC2)c2nc[nH]c2n1` >= 30%?
Outgoing: criterion met

Incoming: Quick check, inhibition >= 30%? `O=S(=O)(c1cccc2cnccc12)N1CCCC12CCNCC2`
Outgoing: criterion not met
